Sourced from ChEMBL document CHEMBL1129293

targetOrSystem: D(1A) dopamine receptor (Rattus norvegicus) (UniProt P18901)
Sequence (P18901 whole entry): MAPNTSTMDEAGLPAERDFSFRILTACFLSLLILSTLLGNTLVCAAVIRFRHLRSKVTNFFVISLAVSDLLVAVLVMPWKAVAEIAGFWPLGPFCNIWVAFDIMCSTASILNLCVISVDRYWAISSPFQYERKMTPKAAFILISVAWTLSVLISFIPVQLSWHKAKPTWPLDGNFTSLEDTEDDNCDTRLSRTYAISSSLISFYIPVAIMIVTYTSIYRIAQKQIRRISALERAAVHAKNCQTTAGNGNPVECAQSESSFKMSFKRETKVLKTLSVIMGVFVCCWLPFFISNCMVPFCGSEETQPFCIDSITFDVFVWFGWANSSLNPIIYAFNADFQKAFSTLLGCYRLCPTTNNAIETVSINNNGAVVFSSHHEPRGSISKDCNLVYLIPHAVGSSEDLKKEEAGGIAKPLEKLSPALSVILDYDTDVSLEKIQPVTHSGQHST
measurementDescription: Affinity towards Dopamine receptor D1 was evaluated in rat striatal membrane using [3H]SCH-23,390 as radioligand
Type: cell membranes
experimentalParameters: Striatum
Each record here notes measured K0.5.
The reply should be a number in nM, with the unit left off.

Oc1ccc([C@@H]2CNCc3sccc32)cc1O | 61
Oc1cc2c(cc1O)[C@H]1c3ccccc3CN[C@@H]1CC2 [DIHYDREXIDINE] | 2.3
NC[C@@H]1O[C@H](c2ccccc2)Cc2c1ccc(O)c2O | 0.9
CCCN1Cc2ccccc2[C@@H]2c3cc(O)c(O)cc3CC[C@H]21 | 326
C=CCN1CCc2c(cc(O)c(O)c2Cl)[C@@H](c2ccccc2)C1 | 4
C=CCN1Cc2ccccc2[C@@H]2c3cc(O)c(O)cc3CC[C@H]21 | 328

[in] Param readout= K0.5; system= D(1A) dopamine receptor (Rattus norvegicus) (UniProt P18901); entry= NCCc1ccc(O)c(O)c1 ; returns value.
[out] 267

[in] Param readout= K0.5; system= D(1A) dopamine receptor (Rattus norvegicus) (UniProt P18901); entry= CN1Cc2ccccc2[C@@H]2c3ccc(O)c(O)c3CC[C@H]21 ; returns value.
[out] 477
